Consider the following compounds and their measured IC50 readings.
- study_system: Human plasma kallikrein (Homo sapiens (Human), UniProt P03952)
- Sequence (P03952 391-638): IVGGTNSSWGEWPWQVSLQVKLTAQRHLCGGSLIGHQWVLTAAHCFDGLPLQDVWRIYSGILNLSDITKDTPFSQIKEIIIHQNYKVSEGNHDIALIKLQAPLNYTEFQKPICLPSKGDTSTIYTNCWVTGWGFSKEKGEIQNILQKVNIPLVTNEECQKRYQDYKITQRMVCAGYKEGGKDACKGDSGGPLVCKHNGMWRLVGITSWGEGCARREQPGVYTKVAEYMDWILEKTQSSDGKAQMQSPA
- Sequence (P03952 20-390 partner): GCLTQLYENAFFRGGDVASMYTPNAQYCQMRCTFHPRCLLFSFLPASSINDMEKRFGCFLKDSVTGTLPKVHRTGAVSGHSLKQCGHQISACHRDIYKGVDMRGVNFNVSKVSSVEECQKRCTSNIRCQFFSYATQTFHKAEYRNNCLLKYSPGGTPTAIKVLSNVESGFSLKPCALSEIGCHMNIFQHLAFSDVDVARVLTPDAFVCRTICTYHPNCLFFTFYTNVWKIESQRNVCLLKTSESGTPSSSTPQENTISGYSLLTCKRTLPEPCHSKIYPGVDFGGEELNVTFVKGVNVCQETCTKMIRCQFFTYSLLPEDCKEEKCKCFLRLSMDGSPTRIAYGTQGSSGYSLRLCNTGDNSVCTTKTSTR
- protocol_details: Kallikrein assay (plasma kallikrein, pKal)
- test_context: purified Human plasma kallikrein 0.5 nM, Acetyl-K-P-R-AFC substrate
Kindly answer with a numeric value in nM, unit omitted.

Please review the following examples before continuing.
compound="COC(=O)Nc1ccc2c(c1)NC(=O)C(C)(C)CCC[C@H](c1ccc(-c3c(-n4cc(C(F)(F)F)cn4)ccc(F)c3F)c[n+]1[O-])c1nc-2c(C)[nH]1 [Example 1]" study_system="Human plasma kallikrein (Homo sapiens (Human), UniProt P03952)" quantity_name=IC50 number=480
compound="COC(=O)Nc1ccc2c(c1)NC(=O)C(C)(C)CCC[C@H](c1ccc(-c3cc(F)ccc3-c3cnn(C(F)(F)F)c3)c[n+]1[O-])c1nc-2c(C)[nH]1 [Example 5]" study_system="Human plasma kallikrein (Homo sapiens (Human), UniProt P03952)" quantity_name=IC50 number=371

Kindly consider the entry below.
# input Request the reported IC50 associated with COC(=O)Nc1ccc2c(c1)NC(=O)C(C)(C)CCC[C@H](c1ccc(-c3cc(Cl)cnc3OC(F)F)c[n+]1[O-])c1nc-2c(C)[nH]1 [Example 6]
# output 443

====

Reported solubility kinetic at 24 h by item:
- protocol_details: High-throughput (HT) solubility determination
- Type: physicochemical
- test_context: phosphate buffered saline (PBS) pH 2, aqueous buffer, kinetic from dmso stock; PBS pH 2, 24 hours at 25° C.; read-out: pH 2 solubility
Supply the numeric figure in µM, leaving out any unit text.

Known results for compounds:
chemical_string=COC(=O)Nc1ccc2c(c1)NC(=O)C(C)(C)CCC[C@H](c1ccc(-c3cc(Cl)cnc3OC(F)F)c[n+]1[O-])c1nc-2c(C)[nH]1 readout_unit=µM number=143
chemical_string=COC(=O)Nc1ccc2c(c1)NC(=O)C(C)(C)CCC[C@H](c1ccc(-c3cc(F)ccc3-c3cnn(C(F)(F)F)c3)c[n+]1[O-])c1nc-2c(C)[nH]1 readout_unit=µM number=146
chemical_string=COC(=O)Nc1ccc2c(c1)NC(=O)C(C)(C)CCC[C@H](c1ccc(-c3cc(F)ccc3-n3cc(C(F)(F)F)cn3)c[n+]1[O-])c1nc-2c(C)[nH]1 readout_unit=µM number=209

# input If you can, please state the reported solubility kinetic at 24 h value of COC(=O)Nc1ccc2c(c1)NC(=O)C(C)(C)CCC[C@H](c1ccc(-c3cc(Cl)ccc3-n3cc(C(F)F)cn3)c[n+]1[O-])c1nc-2c(C)[nH]1 .
# output 166

# input How about this compound: COC(=O)Nc1ccc2c(c1)NC(=O)C(C)(C)CCC[C@H](c1ccc(-c3cc(Cl)ccc3-n3cc(C(F)(F)F)cn3)c[n+]1[O-])c1nc-2c(C)[nH]1
# output 159

====

Known pIC50 of a selection of compounds
- study_system: Human plasma kallikrein (Homo sapiens (Human), UniProt P03952)
- protocol_details: Kallikrein assay (plasma kallikrein, pKal)
- test_context: purified Human plasma kallikrein 0.5 nM, Acetyl-K-P-R-AFC substrate
In plain terms, pIC50 is the concentration in mol/L turned into minus its base-10 logarithm.

chemical_string=COC(=O)Nc1ccc2c(c1)NC(=O)C(C)(C)CCC[C@H](c1ccc(-c3cc(Cl)ccc3-n3cc(C(F)F)cn3)c[n+]1[O-])c1nc-2c(C)[nH]1 number=7.34
chemical_string=COC(=O)Nc1ccc2c(c1)NC(=O)C(C)(C)CCC[C@H](c1ccc(-c3cc(F)ccc3-n3cc(C(F)(F)F)cn3)c[n+]1[O-])c1nc-2c(C)[nH]1 number=5.97

# input Would you kindly share the measured pIC50 for COC(=O)Nc1ccc2c(c1)NC(=O)C(C)(C)CCC[C@H](c1ccc(-c3cc(Cl)ccc3-n3cc(C(F)(F)F)cn3)c[n+]1[O-])c1nc-2c(C)[nH]1 ?
# output 7.38

The measurements presented in this section are drawn from patent US12344616B2.
